Tested on: PMA-differentiated THP-1 cells
assay_name: IL-1β production in PMA-differentiated THP-1 cells stimulated with gramicidin (hTHP-1 assay containing 2% fetal bovine serum; Procedures 1 and 2)
Type: cell-based, human
setup_conditions: Homo sapiens, THP-1, Table B2; 2% fetal bovine serum; class symbols; read-out: hTHP-1 IC50
Procedure: The following protocol is suitable for testing the activity of the compounds disclosed herein. Procedure 1: IL-1β Production in PMA-Differentiated THP-1 Cells Stimulated with Gramicidin. […] THP-1 cells were treated with PMA (Phorbol 12-myristate 13-acetate) (20 ng/ml) for 16-18 hours. […] The plates were incubated for 18 h at 4° C. and read using the preset HTRF program (donor emission at 620 nm, acceptor emission at 668 nm) of the SpectraMax i3x spectrophotometer (Molecular Devices, software SoftMax 6). […]
assay_metric: IC50

Answered cases to consult:
{"molecule": "Cc1c(C2CC2)nc(C2CC2)c(C)c1NC(=O)N=S(N)(=O)c1cc(C(C)(C)O)cs1 (single isomer, unassigned) [Compound 612b]", "IC50": "1 to 5 µM"}
{"molecule": "CC(C)(O)c1cc(Cl)c(S(N)(=O)=NC(=O)Nc2c3c(nc4c2CCC4)CCC3)s1 (stereo not drawn)", "IC50": "1 to 5 µM"}
{"molecule": "Cc1c(C2CCC2)nc2c(c1NC(=O)N=S(N)(=O)c1cnc(C(C)(C)O)s1)CCC2 (stereo not drawn) [Compound 649]", "IC50": "5 to 30 µM"}

Query: Name the recorded IC50 for CCc1c(C(F)(F)F)nc2c(c1NC(=O)N=S(N)(=O)c1sc(C(C)(C)O)cc1F)CCC2 (stereo not drawn) .
Response: 0.2 to 1 µM
